tgt: Myt1 kinase (recombinant PMYT-1) (Homo sapiens, UniProt Q99640)
Construct: full length PMYT-1 was expressed by baculovirus in insect cells; purchased Invitrogen A30984; host or cells: insect cells (baculovirus)
Sequence (Q99640 whole entry): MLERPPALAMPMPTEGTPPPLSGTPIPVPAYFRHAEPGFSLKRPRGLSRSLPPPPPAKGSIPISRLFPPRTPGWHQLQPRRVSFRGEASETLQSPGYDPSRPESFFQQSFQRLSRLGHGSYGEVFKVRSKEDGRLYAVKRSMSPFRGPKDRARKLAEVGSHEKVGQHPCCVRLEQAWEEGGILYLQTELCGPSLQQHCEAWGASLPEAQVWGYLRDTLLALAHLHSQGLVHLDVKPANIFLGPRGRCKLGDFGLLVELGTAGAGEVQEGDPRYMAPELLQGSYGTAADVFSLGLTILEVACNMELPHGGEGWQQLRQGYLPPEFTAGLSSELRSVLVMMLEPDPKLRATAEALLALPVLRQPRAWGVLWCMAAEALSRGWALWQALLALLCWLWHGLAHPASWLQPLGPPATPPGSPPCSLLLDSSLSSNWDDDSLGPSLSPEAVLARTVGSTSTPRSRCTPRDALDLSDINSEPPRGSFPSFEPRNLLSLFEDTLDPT
test: Myt1 kinase binding assay (LanthaScreen Eu Kinase Binding Assay)
conditionSummary: 3 nM tracer 178, 2.5 nM PMYT-1, 1 nM Eu-labeled antibody; read-out: Myt1 kinase Binding IC50
pIC50: −log10 of the molar value.
endpoint: pIC50

Data request: Give the reported value of pIC50 for this record: C=CCn1c(=O)c2cnc(Nc3ccc(OCC(F)(F)F)c(C)c3)nc2n1-c1cccc(NC2CCN(C)CC2)n1
Data returned: 6.30 to 7.00

Data request: Supply recorded pIC50 for C=CCn1c(=O)c2cnc(Nc3ccc4c(cnn4C)c3)nc2n1-c1cccc(OC2CCNCC2)c1 here.
Data returned: < 6.30

Data request: Report pIC50, nothing else, for this molecule: C=CCn1c(=O)c2cnc(Nc3cnc4c(cnn4C(C)C)c3)nc2n1-c1cccc(OC2CCNCC2)n1
Data returned: > 7.70

Data request: Given C=CCn1c(=O)c2cnc(Nc3ccc4c(cnn4C)c3)nc2n1-c1cccc(OC2CCN(C)CC2)c1 , respond with its pIC50.
Data returned: 6.30 to 7.00

Data request: Provide only the value of recorded pIC50 for CCn1c(=O)c2cnc(Nc3ccc4c(cnn4C)c3)nc2n1-c1cccc(NC2CCNCC2)n1
Data returned: 6.30 to 7.00

Data request: In one line, give reported pIC50 of the entry C=CCn1c(=O)c2cnc(Nc3ccc4cnccc4c3)nc2n1-c1cccc(OC2CCNCC2)n1 .
Data returned: 7.00 to 7.70

Data request: Read off the recorded pIC50 for C=CCn1c(=O)c2cnc(Nc3ccc4c(c3)OCO4)nc2n1-c1cccc(NC2CCN(C)CC2)n1
Data returned: 6.30 to 7.00

Data request: Annotate the molecule C=CCn1c(=O)c2cnc(Nc3ccc4c(cnn4C)c3)nc2n1-c1cccc(N[C@H]2CCN(C)C2)n1 with its measured pIC50.
Data returned: 7.00 to 7.70

Data request: Quote pIC50 reported for C=CCn1c(=O)c2cnc(Nc3ccc4cccnc4c3)nc2n1-c1cccc(OC2CCNCC2)n1 please.
Data returned: > 7.70

Data request: Consider the molecule C=CCn1c(=O)c2cnc(Nc3ccc4ccncc4c3)nc2n1-c1cccc(OC2CCN(C)CC2)n1 and give its recorded pIC50.
Data returned: 7.00 to 7.70

Data request: For the molecule C=CCn1c(=O)c2cnc(Nc3cccnc3)nc2n1-c1cccc(OC2CCN(C)CC2)n1 , give its reported pIC50.
Data returned: 7.00 to 7.70

Data request: Entry C=CCn1c(=O)c2cnc(Nc3cnn(C)c3)nc2n1-c1cccc(OC2CCN(C)CC2)n1 needs its pIC50 filled in; supply it.
Data returned: 7.00 to 7.70

Data request: Look up pIC50 of C=CCn1c(=O)c2cnc(Nc3ccc(OCCF)cc3)nc2n1-c1ccnc(OC2CCN(C)CC2)n1 and report it.
Data returned: 7.00 to 7.70

Data request: Output measured pIC50 for this item: C=CCn1c(=O)c2cnc(Nc3ccc4c(cnn4C)c3)nc2n1-c1cccc(N[C@@H]2CCN(C)C2)n1
Data returned: 7.00 to 7.70

Data request: Hello, please tell me recorded pIC50 for this one: C=CCn1c(=O)c2cnc(Nc3ccc4c(ccn4C)c3)nc2n1-c1cccc(OC2CCN(C)CC2)n1
Data returned: 7.00 to 7.70

Data request: Supply reported pIC50 belonging to this molecule: C=CCn1c(=O)c2cnc(Nc3ccc(F)cc3)nc2n1-c1ccnc(OC2CCN(C)CC2)n1
Data returned: 7.00 to 7.70

Data request: Answer with the recorded pIC50 of CCn1c(=S)c2cnc(Nc3ccc4c(cnn4C)c3)nc2n1-c1cccc(OC2CCN(C)CC2)n1 only.
Data returned: 6.30 to 7.00

Data request: Provide only the value of recorded pIC50 for C=CCn1c(=O)c2cnc(Nc3ccc4c(cnn4C)c3)nc2n1-c1cccc(O[C@@H]2CCCNC2)n1
Data returned: 6.30 to 7.00

Data request: Given C=CCn1c(=O)c2cnc(Nc3ccc4[nH]nc(Cl)c4c3)nc2n1-c1cccc(OC2CCNCC2)n1 , respond with its pIC50.
Data returned: 7.00 to 7.70

Data request: Note down pIC50 recorded for C=CCn1c(=O)c2cnc(Nc3cnn(C(C)C)c3)nc2n1-c1cccc(OC2CC3CCCC(C2)N3C)n1 (stereo not drawn)
Data returned: < 6.30

Data request: Return value of pIC50 for input C=CCn1c(=O)c2cnc(Nc3ccc(Cl)cc3)nc2n1-c1cccc(NC2CCNCC2)n1 , no commentary.
Data returned: 7.00 to 7.70

Data request: State, in one line, measured pIC50 of C=CCn1c(=O)c2cnc(Nc3ccc4oc(C)nc4c3)nc2n1-c1cccc(OC2CCN(C)CC2)n1
Data returned: > 7.70

Data request: Query pIC50 for C=CCn1c(=O)c2cnc(Nc3ccc4cnn(C)c4c3)nc2n1-c1cccc(OC2CCN(C)CC2)n1
Data returned: 7.00 to 7.70

Data request: Give the measured pIC50 for CCn1c(=O)c2cnc(Nc3ccc4c(cnn4C)c3)nc2n1-c1cccc(OC2CCNCC2)n1
Data returned: 7.00 to 7.70

Data request: Consider the molecule C=CCn1c(=O)c2cnc(Nc3cnn(CCC)c3)nc2n1-c1cccc(OC2CCNCC2)n1 . State its measured pIC50.
Data returned: < 6.30

Data request: Determine from records and report pIC50 for C=CCn1c(=O)c2cnc(Nc3ccc(F)cc3)nc2n1-c1cccc(OC2CCCNCC2)n1 (stereo not drawn) [Compound 315]
Data returned: 7.00 to 7.70

Data request: Please list pIC50 recorded for the molecule C=CCn1c(=O)c2cnc(Nc3ccc(OC)nc3)nc2n1-c1cccc(OC2CCN(C)CC2)n1
Data returned: 7.00 to 7.70

Data request: Provide pIC50 value for the following molecule: C=CCn1c(=O)c2cnc(Nc3ccc4c(c3)c(C)nn4C)nc2n1-c1cccc(OC2CCN(C)CC2)n1
Data returned: 7.00 to 7.70

Data request: Check the records and state pIC50 for C=CCn1c(=O)c2cnc(Nc3cnn(C)c3)nc2n1-c1cccc(OC2CC3CCCC(C2)N3C)n1 (stereo not drawn)
Data returned: > 7.70

Data request: Identify pIC50 associated with the molecule C=CCn1c(=O)c2cnc(Nc3ccc4nc(C)oc4c3)nc2n1-c1cccc(OC2CCN(C)CC2)n1
Data returned: 7.00 to 7.70
